test_details: recombinant UMI read abundance after kanamycin selection (control-corrected) (log10(CPM+1)); higher = more efficient recombination; extreme values may be limits of the assay; sequences stand for … in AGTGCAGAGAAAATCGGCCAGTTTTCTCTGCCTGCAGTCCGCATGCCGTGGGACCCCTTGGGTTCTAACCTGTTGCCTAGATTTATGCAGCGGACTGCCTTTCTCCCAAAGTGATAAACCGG…AGGTTGGTTTCACT; site = the 11-nt donor
Kindly supply the reported recombinant UMI read abundance (log10) values for the records listed here.
Quick one: just the number, no unit, thanks!

Using the record for CAATGCACATGGACCGGTTTTCCCGGTAATCCGTATTTGAA (site CAATGCGCTTT) , report its recombinant UMI read abundance (log10).
0.409

Lookup ACCTAGACATGGACCGGTTTTCCCGGTAATCCGTATTTGGG (site ACCTAAACTCC)
0

Lookup TGTACATCATGGACCGGTTTTCCCGGTAATCCGTATTTGAC (site TGTACAACTGT)
0

Lookup AGGAGATCATGGACCGGTTTTCCCGGTAATCCGTATTTGGG (site AGGAGATCTCC)
0.505

Lookup AAGACTACATGGACCGGTTTTCCCGGTAATCCGTATTTGAC (site AGGACTACTGT)
1.33

====

test_details: recombinant UMI read abundance after kanamycin selection (control-corrected) (log10(CPM+1)); higher = more efficient recombination; extreme values may be limits of the assay; sequences stand for … in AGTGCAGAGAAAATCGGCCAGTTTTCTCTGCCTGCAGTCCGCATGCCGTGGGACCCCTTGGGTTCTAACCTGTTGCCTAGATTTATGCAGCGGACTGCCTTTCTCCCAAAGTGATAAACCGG…AGGTTGGTTTCACT; site = the 11-nt donor
Binary classification by recombinant UMI read abundance (log10), with 1 as an inclusive lower bound for Condition met; all other cases are Condition not met.

Please check the record CTCCAACCATGGACCGGTTTTCCCGGTAATCCGTATTTGCC (site CTCCAACCTGG) and state if its recombinant UMI read abundance (log10) is at or above 1.
Condition not met

Lookup GGCCAGCCATGGACCGGTTTTCCCGGTAATCCGTATTTGTA (site GGCCAGCCTTA)
Condition not met

Lookup CGCCGTACATGGACCGGTTTTCCCGGTAATCCGTATTTGGT (site CGCCGTACTAG)
Condition not met

Lookup CTTGACTCATGGACCGGTTTTCCCGGTAATCCGTATTTGTA (site CTTGACTCTTA)
Condition met

Lookup GTTGCGGCATGGACCGGTTTTCCCGGTAATCCGTATTTGCT (site GTTGCGGCTAG)
Condition met

Lookup AAATACACATGGACCGGTTTTCCCGGTAATCCGTATTTGCT (site AAATACACTAG)
Condition met

Lookup TGCTAGGCATGGACCGGTTTTCCCGGTAATCCGTATTTGTT (site TGCTAGGCTAG)
Condition not met

Lookup AATATGTCATGGACCGGTTTTCCCGGTAATCCGTATTTGAC (site AATATGTCTGT)
Condition not met

Lookup ATCAATACATGGACCGGTTTTCCCGGTAATCCGTATTTGCA (site ATCAATACTTG)
Condition met

====

test_details: recombinant barcode read abundance after kanamycin selection (control-corrected) (log10(CPM+1)); higher = more efficient recombination; sequences stand for … in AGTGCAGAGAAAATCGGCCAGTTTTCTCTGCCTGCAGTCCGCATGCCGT…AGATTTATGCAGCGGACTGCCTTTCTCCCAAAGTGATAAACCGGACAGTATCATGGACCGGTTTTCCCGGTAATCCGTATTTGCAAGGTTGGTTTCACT; site = the 11-nt target
observed_property: recombinant barcode read abundance (log10)
Quick one: just the number, no unit, thanks!

Using the record for AGGTGCTCTTGGGTTCTAACCTGTTGCCT (site ACGTGCTCTAG) , report its recombinant barcode read abundance (log10).
0.179

Lookup CTCGCTCCTTGGGTTCTAACCTGTTGCCA (site GAAAAGTCTCA)
0.113

Lookup GCACGGACTTGGGTTCTAACCTGTTGCAG (site GCATGGACTCT)
0.3

Lookup CGCAATGCTTGGGTTCTAACCTGTTGCCT (site CGCAATGCTAG)
0.07

Lookup AAGGGGCCTTGGGTTCTAACCTGTTGCCT (site AAGGGGCCTAG)
1.8

Lookup GTGTAGTCTTGGGTTCTAACCTGTTGCCG (site GTGTAGGCTCT)
0.254

Lookup CTAGACGCTTGGGTTCTAACCTGTTGCCT (site CTAGACGCTAG)
0.677

Lookup CTAAATCCTTGGGTTCTAACCTGTTGCCT (site TTAAATCCTAG)
0.0182

Lookup CCGCGCTCTTGGGTTCTAACCTGTTGCCT (site CCGCGCTCTAG)
0.641

Lookup ACAATAGCTTGGGTTCTAACCTGTTGCCT (site ACAATAGCTAG)
1.64

====

Kindly supply the reported recombinant UMI read abundance (log10) values for the records listed here.
test_details: recombinant UMI read abundance after kanamycin selection (control-corrected) (log10(CPM+1)); higher = more efficient recombination; extreme values may be limits of the assay; sequences stand for … in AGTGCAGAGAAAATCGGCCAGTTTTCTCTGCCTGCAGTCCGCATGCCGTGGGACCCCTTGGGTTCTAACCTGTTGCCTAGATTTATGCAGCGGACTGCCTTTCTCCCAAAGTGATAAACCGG…AGGTTGGTTTCACT; site = the 11-nt donor
Quick one: just the number, no unit, thanks!

Using the record for GGTCCCACATGGACCGGTTTTCCCGGTAATCCGTATTTGTA (site GGTCCCACTTA) , report its recombinant UMI read abundance (log10).
0.0202

Lookup ACACAACCATGGACCGGTTTTCCCGGTAATCCGTATTTGAC (site ACACAACCTGT)
0

Lookup CTCAGCCCATGGACCGGTTTTCCCGGTAATCCGTATTTGCC (site CTCAGCCCTGG)
0

Lookup TAGGATTCATGGACCGGTTTTCCCGGTAATCCGTATTTGCG (site TAGGATTCTCG)
2.94

Lookup CCCTAGCCATGGACCGGTTTTCCCGGTAATCCGTATTTGCC (site CCCTAGCCTGA)
0

Lookup AAGCAGGCATGGACCGGTTTTCCCGGTAATCCGTATTTGGG (site AAGCAAGCTCC)
0.00504

Lookup TGTACACCATGGACCGGTTTTCCCGGTAATCCGTATTTGTC (site TGTACACCTGC)
0

Lookup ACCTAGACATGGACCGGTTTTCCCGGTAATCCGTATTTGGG (site ATCTAGACTCC)
0.015

Lookup GTCAAACCATGGACCGGTTTTCCCGGTAATCCGTATTTGGT (site GCCAAACCTAC)
0

====

test_details: recombinant UMI read abundance after kanamycin selection (control-corrected) (log10(CPM+1)); higher = more efficient recombination; extreme values may be limits of the assay; sequences stand for … in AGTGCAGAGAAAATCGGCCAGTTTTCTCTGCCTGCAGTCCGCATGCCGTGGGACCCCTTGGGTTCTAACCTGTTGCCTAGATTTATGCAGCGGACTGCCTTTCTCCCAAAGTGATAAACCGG…AGGTTGGTTTCACT; site = the 11-nt donor
observed_property: recombinant UMI read abundance (log10)
Quick one: just the number, no unit, thanks!

Using the record for GATTGGACATGGACCGGTTTTCCCGGTAATCCGTATTTGAC (site GCTTGGACTGT) , report its recombinant UMI read abundance (log10).
0

Lookup GTTGGTACATGGACCGGTTTTCCCGGTAATCCGTATTTGAC (site GTTGGTACTGT)
2.36

Lookup CGACCATCATGGACCGGTTTTCCCGGTAATCCGTATTTGCG (site CGACCATCTCG)
2.23

Lookup GGTACGACATGGACCGGTTTTCCCGGTAATCCGTATTTGTT (site GGTACGACTAA)
0.444

Lookup CCTAGAGCATGGACCGGTTTTCCCGGTAATCCGTATTTGTT (site CCTAGAGCTAA)
0.633

Lookup CCCTAGTCATGGACCGGTTTTCCCGGTAATCCGTATTTGCC (site CCCTAGCCTGG)
0

Lookup ACTAGTGCATGGACCGGTTTTCCCGGTAATCCGTATTTGCT (site ACTAGTGCTAG)
1.37

Lookup CGATTGACATGGACCGGTTTTCCCGGTAATCCGTATTTGTT (site CGATCGACTAA)
0.016

Lookup GGCAATCCATGGACCGGTTTTCCCGGTAATCCGTATTTGAA (site TGCAATCCTTT)
0.0119

====

test_details: recombinant UMI read abundance after kanamycin selection (control-corrected) (log10(CPM+1)); higher = more efficient recombination; extreme values may be limits of the assay; sequences stand for … in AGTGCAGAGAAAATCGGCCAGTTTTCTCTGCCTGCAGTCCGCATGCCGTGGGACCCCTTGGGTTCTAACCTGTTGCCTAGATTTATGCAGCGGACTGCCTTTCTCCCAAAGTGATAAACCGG…AGGTTGGTTTCACT; site = the 11-nt donor
Binary classification by recombinant UMI read abundance (log10), with 0.1 as an inclusive lower bound for Criterion met; all other cases are Criterion not met.

Please check the record CCGTTTACATGGACCGGTTTTCCCGGTAATCCGTATTTGCT (site CCCTTTACTAG) and state if its recombinant UMI read abundance (log10) is at or above 0.1.
Criterion not met

Lookup CCCTTCTCATGGACCGGTTTTCCCGGTAATCCGTATTTGGG (site CCCTTGTCTCC)
Criterion not met

Lookup GTGCATTCATGGACCGGTTTTCCCGGTAATCCGTATTTGGT (site GTGCATCCTAC)
Criterion not met

Lookup AGGACTACATGGACCGGTTTTCCCGGTAATCCGTATTTGAC (site AGGACCACTGT)
Criterion met

Lookup ACACGAACATGGACCGGTTTTCCCGGTAATCCGTATTTGTC (site GCACGAACTGA)
Criterion not met

Lookup ACAGTGTCATGGACCGGTTTTCCCGGTAATCCGTATTTGCA (site ACAGTTTCTTG)
Criterion met

Lookup GGTGTGGCATGGACCGGTTTTCCCGGTAATCCGTATTTGGT (site GGAGTGGCTAC)
Criterion met

Lookup CAATTCCCATGGACCGGTTTTCCCGGTAATCCGTATTTGGT (site CAATTCCCTAT)
Criterion met

Lookup TTTCTCTCATGGACCGGTTTTCCCGGTAATCCGTATTTGTA (site CTTCTCTCTTA)
Criterion met

Measured values drawn from the supplement of paper PMC11208160 for this set.
